Literature roundup of Peptidyl-prolyl cis-trans isomerase A (Homo sapiens, UniProt P62937) data, read-out Ki.
value.type: Ki (nM)

1) CCOC(=O)[C@@H]1CCCN(C(=O)Nc2ccc3nc(-c4ccco4)c(-c4ccco4)nc3c2)C1 = 3000
2) CC[C@@H]1NC(=O)[C@H]([C@H](O)[C@H](C)Cc2nc3ccc(C(C)C)cc3[nH]2)N(C)C(=O)[C@H](C(C)C)N(C)C(=O)[C@H](CC(C)C)N(C)C(=O)[C@H](CC(C)C)N(C)C(=O)[C@@H](C)NC(=O)[C@H](C)NC(=O)[C@H](CC(C)C)N(C)C(=O)[C@H](C(C)C)NC(=O)[C@H](CC(C)C)N(C)C(=O)CN(C)C1=O = 43.9
3) CC[C@@H]1NC(=O)[C@H]([C@H](O)[C@H](C)C/C=C/c2ccc(CNC(=O)c3ccc(-c4c5ccc(=O)cc-5oc5cc(O)ccc45)c(C(=O)O)c3)cc2)N(C)C(=O)[C@H](C(C)C)N(C)C(=O)[C@H](CC(C)C)N(C)C(=O)[C@H](CC(C)C)N(C)C(=O)[C@@H](C)NC(=O)[C@H](C)NC(=O)[C@H](CC(C)C)N(C)C(=O)[C@H](C(C)C)NC(=O)[C@H](CC(C)C)N(C)C(=O)CN(C)C1=O = 106
